ASSAY PROTOCOL: in vitro
STUDY CONDITIONS: African green monkey, Percent Cytotoxicity (Neutral Red), Vero E6; SARS2-735; 10 µM
PARAMETER: cytotoxicity at 10 µM

Given item `COC(=O)/C=C/C(=O)NNC(=O)CCc1ccccc1C(=O)N[C@H](C)c1cccc2ccccc12` , the value recorded as its cytotoxicity at 10 µM is 38.5%

###

ASSAY PROTOCOL: in vitro
STUDY CONDITIONS: African green monkey, cytotoxicity, %cell viability
We label by threshold. Values of viability at 48 h, 8.33 µM strictly beneath 90% are Fulfilled. Values of 90% and up are Not fulfilled.

**Query** Does the reported viability at 48 h, 8.33 µM of the following compound sit strictly below 90%? `COC(=O)/C=C/C(=O)NNC(=O)CCc1ccc(NC(C)=O)cc1C(=O)N[C@H](C)c1cccc2ccccc12`
**Result** Fulfilled

**Query** Does the reported viability at 48 h, 8.33 µM of the following compound sit strictly below 90%? `CC(=O)Nc1ccc(C)c(C(=O)N[C@H](C)c2cccc3ccccc23)c1`
**Result** Fulfilled

**Query** Does the reported viability at 48 h, 8.33 µM of the following compound sit strictly below 90%? `C[C@@H](NC(=O)c1ccccc1CCC(=O)NNC(=O)CC#N)c1cccc2ccccc12`
**Result** Not fulfilled

**Query** Does the reported viability at 48 h, 8.33 µM of the following compound sit strictly below 90%? `Cc1ccccc1C(=O)N[C@H](C)c1cccc2ccccc12`
**Result** Not fulfilled

**Query** Does the reported viability at 48 h, 8.33 µM of the following compound sit strictly below 90%? `C[C@@H](NC(=O)c1ccccc1CCC(=O)NNC(=O)CCl)c1cccc2ccccc12`
**Result** Not fulfilled

**Query** Does the reported viability at 48 h, 8.33 µM of the following compound sit strictly below 90%? `C[C@@H](NC(=O)c1ccccc1CCC(=O)NN)c1cccc2ccccc12`
**Result** Not fulfilled

**Query** Does the reported viability at 48 h, 8.33 µM of the following compound sit strictly below 90%? `C#CC(=O)NNC(=O)CCc1ccccc1C(=O)N[C@H](C)c1cccc2ccccc12`
**Result** Fulfilled

**Query** Does the reported viability at 48 h, 8.33 µM of the following compound sit strictly below 90%? `CC(=O)Nc1ccc(CCC(=O)NNC(=O)CCl)c(C(=O)N[C@H](C)c2cccc3ccccc23)c1`
**Result** Fulfilled

**Query** Does the reported viability at 48 h, 8.33 µM of the following compound sit strictly below 90%? `COC(=O)CCc1ccccc1C(=O)N[C@H](C)c1cccc2ccccc12`
**Result** Not fulfilled

Origin of measurements: paper PMC10044120
